Test system: OVCAR-3 ovarian
experimental details: NCI-60 one-dose screen, 48 h (100 = growth as untreated, 0 = no growth, -100 = all killed)
test parameters: 10 µM unless noted
Compounds without any hit were thinned out: in the full panel of roughly 83,000, 20% have a hit. Calls of active or inactive are those of the source. How the source made its calls: active means growth percent below 10; inactive means the rest.
# growth values compiled below
recorded endpoint: growth

>  <compound>
COc1cc2c(cc1OC)-c1cc(OC)c(OC)cc1C(CN(C)C)C2 (configuration not stated)

>  <recorded endpoint>
growth

>  <experimental result>
59.9% [100 µM] (inactive)

$$$$
>  <compound>
COc1ccc(/C(C)=N/NC(=O)c2ccc(S(C)(=O)=O)cc2)cc1OC

>  <recorded endpoint>
growth

>  <experimental result>
113% (inactive)

$$$$
>  <compound>
COc1cc(OC)c2sc(-c3ccc(-n4cncc4-c4ccc(OC)c(N)c4)cc3)nc2c1

>  <recorded endpoint>
growth

>  <experimental result>
77.4% (inactive)

$$$$
>  <compound>
COc1ccc(-c2cc(-c3cn(-c4cccc(Cl)c4)nc3-c3ccc(OC)cc3)[nH]c(=S)n2)cc1

>  <recorded endpoint>
growth

>  <experimental result>
108% (inactive)

$$$$
>  <compound>
CCN(CC)CC(=O)Nc1c(C)ccc(N)c1C

>  <recorded endpoint>
growth

>  <experimental result>
109% (inactive)

$$$$
>  <compound>
C=CCOc1ccc2c(C)cc(=O)oc2c1

>  <recorded endpoint>
growth

>  <experimental result>
105% (inactive)

$$$$
>  <compound>
NS(=O)(=O)c1ccc(CCn2c(SCC(=O)N/N=C/c3ccccc3O)nc3ccccc3c2=O)cc1

>  <recorded endpoint>
growth

>  <experimental result>
23.8% (inactive)

$$$$

====

Test system: HOP-62 NSCLC
experimental details: NCI-60 one-dose screen, 48 h
test parameters: 10 µM unless noted
The panel holds about 83,000 compounds, 20% with a hit somewhere; the sample as a whole holds those more often. The source made the active and inactive calls. The calls were made as follows: active = growth percent below 10; inactive = the rest.
Labels: active, inactive

>  <compound>
Cc1cc(-c2ccccc2)on1

>  <assigned category>
inactive

$$$$
>  <compound>
Clc1ccc(C2=NN[C@H](c3cn(-c4ccccc4)nc3-c3ccccc3)C2)cc1

>  <assigned category>
inactive

$$$$
>  <compound>
O=C1/C(=C/N2N=C(c3ccc(Cl)cc3)CC2c2ccccc2O)SC(=S)N1c1cccc(C(F)(F)F)c1 (configuration not stated)

>  <assigned category>
inactive

$$$$
>  <compound>
O=S(=O)(Nc1ccc2ccccc2c1)N1CCCCC1

>  <assigned category>
inactive

$$$$
>  <compound>
CCCCCCCCCCCCC1CCC(=O)O1 (configuration not stated)

>  <assigned category>
inactive

$$$$
>  <compound>
COc1ccc2nc3cc(Cl)ccc3c(NC(=O)CSc3ccc(Cl)cc3)c2c1

>  <assigned category>
active

$$$$
>  <compound>
CN1CCCN(CCNc2nccc(-c3c(-c4cccc(O)c4)nc4sccn34)n2)S1(=O)=O

>  <assigned category>
inactive

$$$$
>  <compound>
C=CCOC(=O)C1=C(C)NC2=C(C(=O)CC(C)(C)C2)C1c1ccc(OC)cc1 (configuration not stated)

>  <assigned category>
inactive

$$$$
>  <compound>
N#CCCn1cnc2c(N)ncnc21

>  <assigned category>
inactive

$$$$
>  <compound>
O=S1(=O)NCCN1CCNc1nccc(-c2c(-c3cccc(O)c3)nc3sccn23)n1

>  <assigned category>
inactive

$$$$
>  <compound>
CC1OC(n2c3ccccc3c3c4c(c5c6ccccc6[nH]c5c32)C(=O)N(CCN[C@H]2CCC[C@@H]2N)C4=O)CC(O)C1O (some centres not stated)

>  <assigned category>
inactive

$$$$
>  <compound>
CCn1c(Cc2ccccc2Nc2c(Cl)cccc2Cl)nnc1SCC(=O)Nc1ccccc1C(F)(F)F

>  <assigned category>
inactive

$$$$
>  <compound>
Cc1ccc([C@H]2c3[nH]c4ccccc4c3C[C@H]3C(=O)N(CCCCCCC(=O)NO)CC(=O)N23)cc1

>  <assigned category>
inactive

$$$$
>  <compound>
COc1ccc(-c2cnc(-c3ccncc3-c3cccc(OC)c3)o2)cc1

>  <assigned category>
inactive

$$$$
>  <compound>
S=C(Cc1ccccc1)N1CCN(c2ccccc2Cl)CC1

>  <assigned category>
inactive

$$$$
>  <compound>
CCOC(=O)c1cc(C(=O)OCC)c(C)nc1C

>  <assigned category>
inactive

$$$$
>  <compound>
O=[N+]([O-])c1ccc(N/N=C/c2ccccc2O)nc1

>  <assigned category>
inactive

$$$$
